Tested on: Saccharomyces cerevisiae;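 further: PSI is a weighted mean of sequencing reads over stability bins, variants kept only with over 10 reads, mCherry proximal and sfGFP distal, peptide attached via GGGS linker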
Assay: protein stability index of tFT-peptide fusion (C-terminal peptide) (PSI (0-1 scale)); higher = more stable (slower turnover)
Details: genetic background: wild type; temperature: 30 C
Each entry below carries its recorded protein stability index.
Lab note: jot the number down without any unit.

Sample records with protein stability index:
INSERT INTO assay_data (chain, assayed_system, readout_kind, reported_result) VALUES
  ('STNIDQKKKEEK', 'Saccharomyces cerevisiae', 'protein stability index', 0.7),
  ('SRKKSKQYRQEK', 'Saccharomyces cerevisiae', 'protein stability index', 0.716),
  ('VCNLSRRGLCHG', 'Saccharomyces cerevisiae', 'protein stability index', 0.584),
  ('LVWTGGLVGWLR', 'Saccharomyces cerevisiae', 'protein stability index', 0.719),
  ('YSSLLPLSSPSG', 'Saccharomyces cerevisiae', 'protein stability index', 0.684);

protein stability index for Saccharomyces cerevisiae with input "RWGCVGWKVVGG" equals 0.709

Recorded protein stability index for "AASSDGWHTGGA" on Saccharomyces cerevisiae was 0.694

Entry "PLPPPPYPPTLL" , tested on Saccharomyces cerevisiae, has a reported protein stability index of 0.592

Record "PPSPAPSPPRPL" has Saccharomyces cerevisiae protein stability index equal to 0.702

// returns protein stability index for "GGLGDIHSDDVE" with Saccharomyces cerevisiae; value = 0.681
